methodSummary: self-splicing fitness, log relative to wild type (ln ratio); higher = more splicing; Tetrahymena group I intron in knt gene, E. coli kanamycin selection, DiMSum; sequences stand for … in CUCUCU…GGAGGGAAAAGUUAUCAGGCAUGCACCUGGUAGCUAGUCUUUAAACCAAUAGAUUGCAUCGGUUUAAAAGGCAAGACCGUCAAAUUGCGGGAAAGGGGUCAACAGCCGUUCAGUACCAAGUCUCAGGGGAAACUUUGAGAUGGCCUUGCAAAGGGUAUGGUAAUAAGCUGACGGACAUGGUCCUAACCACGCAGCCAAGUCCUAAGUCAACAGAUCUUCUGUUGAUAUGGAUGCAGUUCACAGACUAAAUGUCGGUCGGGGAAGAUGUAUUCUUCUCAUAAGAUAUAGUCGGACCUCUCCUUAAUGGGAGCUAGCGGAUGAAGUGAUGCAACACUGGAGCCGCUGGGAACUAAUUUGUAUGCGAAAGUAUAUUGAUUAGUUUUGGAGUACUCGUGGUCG;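 note: selection with 25 µg/mL kanamycin versus none on LB agar overnight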
assayConditions: 37 °C
measure: self-splicing fitness (ln)
Write no unit; give the number alone.

Need self-splicing fitness (ln), item AGGGAGCAAUAUUACGACGC
-1.54

Which self-splicing fitness (ln) is listed for AUCAAGCAAUAUUACGAUUC ?
-1.25

Looking for the measured self-splicing fitness (ln) of CCUUAGCAAUAUUACGCUCG , can you help?
-1.73

Give the measured self-splicing fitness (ln) of GACUAGCAAUAUUACGAGGA .
-1.43

What value of self-splicing fitness (ln) has been recorded for this entry: AAUAAGCAAUAUUACGGCCU
-0.0762

Reported self-splicing fitness (ln), sequence UGCAAGCAAUAUUACGAGAC : ____
-2.05

# lookup: self-splicing fitness (ln) of CAGAAGCAAUAUUACGUUUG
-2.54

Given AAUCAGCAAUAUUACGUCGA , state its recorded self-splicing fitness (ln).
0.0423

Please report the recorded self-splicing fitness (ln) for UUAGAGCAAUAUUACGGAUC .
-1.56

What measured self-splicing fitness (ln) goes with CUGAAGCAAUAUUACGGUUC ?
-3.5

Entry UCGUAGCAAUAUUACGUCUU has what self-splicing fitness (ln)?
-0.44

Any idea what self-splicing fitness (ln) was measured for CGUAAGCAAUAUUACGGCUA ?
-1.48

Field request: self-splicing fitness (ln) | item: UAAAAGCAAUAUUACGUCCG
0.205

Which value of self-splicing fitness (ln) has been reported for AGGCAGCAAUAUUACGCUUC in the records?
-1.31

Could you share which self-splicing fitness (ln) value was measured for UUGCAGCAAUAUUACGCUAU ?
-1.16

What value of measured self-splicing fitness (ln) is listed for AAAAAGCAAUAUUACGUUCC ?
-0.521

I would be grateful if you could share the reported self-splicing fitness (ln) for UCACAGCAAUAUUACGGCCC .
-1.82

What does the record list as self-splicing fitness (ln) for UGGAAGCAAUAUUACGUACC ?
-0.601

# lookup: self-splicing fitness (ln) of GAUAAGCAAUAUUACGCAGG
-2.95

Can you share its self-splicing fitness (ln)? I mean this sequence: CAUUAGCAAUAUUACGGCUG
0.0962

Dear colleague, I am looking for the recorded self-splicing fitness (ln) of the following sequence: GUCAAGCAAUAUUACGGGGC
-3.14

Which self-splicing fitness (ln) value belongs to UACGAGCAAUAUUACGGCGA ?
-0.508

I have this sequence here, AAAGAGCAAUAUUACGAAGC , and I need its recorded self-splicing fitness (ln).
-2.04

Tell me the measured self-splicing fitness (ln) of AUGAAGCAAUAUUACGCCGA , please.
-0.149

Fill in the blank: the reported self-splicing fitness (ln) of CCCAAGCAAUAUUACGUCUU is ____.
-2.25

Endpoint output: self-splicing fitness (ln) of GUAGAGCAAUAUUACGAGAU . Value?
-0.661

Need self-splicing fitness (ln) of ACUGAGCAAUAUUACGUCAA , thanks.
-2.31

Quick one: self-splicing fitness (ln) of AAGAAGCAAUAUUACGCCGA ?
-0.757

Which measured self-splicing fitness (ln) value corresponds to UAACAGCAAUAUUACGCUGU ?
-2.62

Which self-splicing fitness (ln) is listed for CGGAAGCAAUAUUACGCACU ?
-0.396

So what's the measured self-splicing fitness (ln) for this one? CGAUAGCAAUAUUACGAAUA
-1.47
